Experiment: Food effect on sepiapterin: plasma sepiapterin and BH4 in fasted and fed subjects
Assay type: in vivo
Conditions: human, plasma; fasted; sepiapterin 10 mg/kg oral; 24 h; read-out: Minimum sepiapterin concentration in plasma
Protocol: Method: Subjects received 2 oral doses of sepiapterin (10 mg/kg) separated by 1 week in a fasted and fed state. […] Sampling for PK analysis occurred predose on Days 1 and 8 (within 30 minutes before dosing) and 0.5 hr, 1 hr, 2 hr, 4 hr, 8 hr, 12 hr, and 24 hr after the doses on Days 1 and 8. The blood concentrations of sepiapterin and BH4 were analyzed by MNG Labs.
recorded.endpoint: concentration at 24 h (nM)

INSERT INTO measurements (compound, observed) VALUES
  ('C[C@H](O)C(=O)C1=Nc2c(nc(N)[nH]c2=O)NC1 [sepiapterin, Sepiapterin]', 0);
